Recorded Mortalité en 48 h. for the following molecules
- Tested on: souris femelles
- protocolDescription: acute toxicity in the mouse, intraperitoneal
- Format: in vivo
- settings: voie intrapéritonéale, 150 mg/kg; dead mice of the group
measuredQuantity: Mortalité en 48 h.

[[record]]
molecule = "CN(C)CCCN1c2ccccc2C2C(c3ccccc3)=NN(c3ccccc3)C2c2ccccc21 (centres unmarked) [compound 8]"
measuredquantity = "Mortalité en 48 h."
observed = 1

[[record]]
molecule = "CN(C)CCN1c2ccccc2-c2onc(-c3ccccc3)c2-c2ccccc21 [compound 17]"
measuredquantity = "Mortalité en 48 h."
observed = 0

[[record]]
molecule = "CN(C)CCCN1c2ccccc2C2ON=C(c3ccccc3)C2c2ccccc21 (centres unmarked) [compound 3]"
measuredquantity = "Mortalité en 48 h."
observed = 0

[[record]]
molecule = "CC(CN(C)C)CN1c2ccccc2C2C(c3ccccc3)=NN(c3ccccc3)C2c2ccccc21 (centres unmarked) [compound 9]"
measuredquantity = "Mortalité en 48 h."
observed = 0

[[record]]
molecule = "CN(C)CCCN1c2ccccc2-c2onc(-c3ccccc3)c2-c2ccccc21 [compound 18]"
measuredquantity = "Mortalité en 48 h."
observed = 0


----------
- protocolDescription: acute toxicity in the mouse, intraperitoneal
- Format: in vivo, Souris
- settings: mouse, in vivo, ip; voie intrapéritonéale, 250 mg/kg; read-out: Mortalité %
measuredQuantity: mortality at 48 h (%)

[[record]]
molecule = "c1ccc(-c2nn(-c3ccccc3)c3c2-c2ccccc2Nc2ccccc2-3)cc1"
measuredquantity = "mortality at 48 h"
scaleunit = "%"
observed = 0

[[record]]
molecule = "OCCN1CCN(CCCN2c3ccccc3C3ON=C(c4ccccc4)C3c3ccccc32)CC1 (stereo not shown)"
measuredquantity = "mortality at 48 h"
scaleunit = "%"
observed = 100

[[record]]
molecule = "CN(C)CCN1c2ccccc2C2C(c3ccccc3)=NN(c3ccccc3)C2c2ccccc21 (stereo not shown)"
measuredquantity = "mortality at 48 h"
scaleunit = "%"
observed = 0

[[record]]
molecule = "CN(C)CCN1c2ccccc2-c2onc(-c3ccccc3)c2-c2ccccc21"
measuredquantity = "mortality at 48 h"
scaleunit = "%"
observed = 100

[[record]]
molecule = "CC(CN(C)C)CN1c2ccccc2-c2c(-c3ccccc3)nn(-c3ccccc3)c2-c2ccccc21 (stereo not shown)"
measuredquantity = "mortality at 48 h"
scaleunit = "%"
observed = 80

[[record]]
molecule = "CN(C)CCN1c2ccccc2-c2c(-c3ccccc3)nn(-c3ccccc3)c2-c2ccccc21"
measuredquantity = "mortality at 48 h"
scaleunit = "%"
observed = 0

[[record]]
molecule = "CN(C)CCCN1c2ccccc2C2C(c3ccccc3)=NN(c3ccccc3)C2c2ccccc21 (stereo not shown)"
measuredquantity = "mortality at 48 h"
scaleunit = "%"
observed = 0

[[record]]
molecule = "CN(C)CCCN1c2ccccc2C=Cc2ccccc21 [compound 21, reference compound]"
measuredquantity = "mortality at 48 h"
scaleunit = "%"
observed = 100

[[record]]
molecule = "c1ccc(-c2noc3c2-c2ccccc2Nc2ccccc2-3)cc1"
measuredquantity = "mortality at 48 h"
scaleunit = "%"
observed = 20

[[record]]
molecule = "CC(CN(C)C)CN1c2ccccc2-c2onc(-c3ccccc3)c2-c2ccccc21 (stereo not shown)"
measuredquantity = "mortality at 48 h"
scaleunit = "%"
observed = 60

[[record]]
molecule = "CN(C)CCCN1c2ccccc2-c2onc(-c3ccccc3)c2-c2ccccc21"
measuredquantity = "mortality at 48 h"
scaleunit = "%"
observed = 100

[[record]]
molecule = "CN(C)CCCN1c2ccccc2C2ON=C(c3ccccc3)C2c2ccccc21 (stereo not shown)"
measuredquantity = "mortality at 48 h"
scaleunit = "%"
observed = 100

[[record]]
molecule = "CN(C)CCCN1c2ccccc2-c2c(-c3ccccc3)nn(-c3ccccc3)c2-c2ccccc21"
measuredquantity = "mortality at 48 h"
scaleunit = "%"
observed = 80


----------
- protocolDescription: acute toxicity in the mouse, intraperitoneal
- Type: in vivo, Souris
- settings: mouse, in vivo, ip; voie intrapéritonéale, 500 mg/kg; read-out: Mortalité %
- Text: Les produits ont été administrés par voie intrapéritonéale à des souris femelles dont le poids variait de 18 à 30 g. Les animaux injectés ont été maintenus dans une salle thermostatée, nourris et abreuvés à volonté. La mortalité a été relevée à 1 heure, 4 heures, 24 heures et 48 heures.
measuredQuantity: mortality at 48 h (%)

[[record]]
compound = "c1ccc(-c2noc3c2-c2ccccc2Nc2ccccc2-3)cc1"
observed = 0

[[record]]
compound = "CN(C)CCN1c2ccccc2C2C(c3ccccc3)=NN(c3ccccc3)C2c2ccccc21 (centres unmarked)"
observed = 0

[[record]]
compound = "c1ccc(C2=NN(c3ccccc3)C3c4ccccc4Nc4ccccc4C23)cc1 (centres unmarked)"
observed = 0

[[record]]
compound = "CC(CN(C)C)CN1c2ccccc2-c2onc(-c3ccccc3)c2-c2ccccc21 (centres unmarked)"
observed = 100

[[record]]
compound = "CN(C)CCCN1c2ccccc2-c2c(-c3ccccc3)nn(-c3ccccc3)c2-c2ccccc21"
observed = 100


----------
- System: souris femelles
- protocolDescription: acute toxicity in the mouse, intraperitoneal
- Assay type: in vivo
- settings: voie intrapéritonéale, 200 mg/kg; dead mice of the group
measuredQuantity: Mortalité en 1 heure

[[record]]
compound = "CN(C)CCCN1c2ccccc2C2ON=C(c3ccccc3)C2c2ccccc21 (stereo not drawn) [compound 3]"
measuredquantity = "Mortalité en 1 heure"
observed = 2

[[record]]
compound = "CN(C)CCN1c2ccccc2C2ON=C(c3ccccc3)C2c2ccccc21 (stereo not drawn) [Composé 2]"
measuredquantity = "Mortalité en 1 heure"
observed = 4

[[record]]
compound = "CN(C)CCN1c2ccccc2C=Cc2ccccc21 [compound 20, reference compound]"
measuredquantity = "Mortalité en 1 heure"
observed = 5

[[record]]
compound = "CN(C)CCN1c2ccccc2-c2onc(-c3ccccc3)c2-c2ccccc21 [compound 17]"
measuredquantity = "Mortalité en 1 heure"
observed = 5

[[record]]
compound = "CN(C)CCCN1c2ccccc2-c2onc(-c3ccccc3)c2-c2ccccc21 [compound 18]"
measuredquantity = "Mortalité en 1 heure"
observed = 5

[[record]]
compound = "OCCN1CCN(CCCN2c3ccccc3C3ON=C(c4ccccc4)C3c3ccccc32)CC1 (stereo not drawn) [compound 5]"
measuredquantity = "Mortalité en 1 heure"
observed = 5


----------
- Test system: souris femelles
- protocolDescription: acute toxicity in the mouse, intraperitoneal
- Assay type: in vivo
- settings: voie intrapéritonéale, 500 mg/kg; dead mice of the group
Recorded Mortalité en 1 heure for the following compounds
measuredQuantity: Mortalité en 1 heure

[[record]]
compound = "CC(CN(C)C)CN1c2ccccc2-c2onc(-c3ccccc3)c2-c2ccccc21 (centres unmarked)"
observed = 5

[[record]]
compound = "c1ccc(C2=NN(c3ccccc3)C3c4ccccc4Nc4ccccc4C23)cc1 (centres unmarked)"
observed = 0

[[record]]
compound = "CN(C)CCN1c2ccccc2C2C(c3ccccc3)=NN(c3ccccc3)C2c2ccccc21 (centres unmarked)"
observed = 0

[[record]]
compound = "CN(C)CCCN1c2ccccc2-c2c(-c3ccccc3)nn(-c3ccccc3)c2-c2ccccc21"
observed = 3

[[record]]
compound = "c1ccc(-c2noc3c2-c2ccccc2Nc2ccccc2-3)cc1"
observed = 0


----------
- protocolDescription: acute toxicity in the mouse, intraperitoneal
- Type: in vivo, Souris
- settings: mouse, in vivo, ip; voie intrapéritonéale, 25 mg/kg; read-out: Mortalité %
- Source text: Les produits ont été administrés par voie intrapéritonéale à des souris femelles dont le poids variait de 18 à 30 g. Les animaux injectés ont été maintenus dans une salle thermostatée, nourris et abreuvés à volonté. La mortalité a été relevée à 1 heure, 4 heures, 24 heures et 48 heures.
measuredQuantity: mortality at 48 h (%)

[[record]]
molecule = "CC(CN(C)C)CN1c2ccccc2C=Cc2ccccc21 (stereo not shown) [compound 22, reference compound]"
observed = 0


----------
Recorded Mortalité en 48 h. for the following molecules
- System: souris femelles
- protocolDescription: acute toxicity in the mouse, intraperitoneal
- Format: in vivo
- settings: voie intrapéritonéale, 100 mg/kg; dead mice of the group
measuredQuantity: Mortalité en 48 h.

[[record]]
molecule = "CC(CN(C)C)CN1c2ccccc2C2ON=C(c3ccccc3)C2c2ccccc21 (centres unmarked)"
assaysystem = "souris femelles"
observed = 0

[[record]]
molecule = "CC(CN(C)C)CN1c2ccccc2-c2c(-c3ccccc3)nn(-c3ccccc3)c2-c2ccccc21 (centres unmarked)"
assaysystem = "souris femelles"
observed = 0

[[record]]
molecule = "CC(CN(C)C)CN1c2ccccc2-c2onc(-c3ccccc3)c2-c2ccccc21 (centres unmarked)"
assaysystem = "souris femelles"
observed = 0

[[record]]
molecule = "CN(C)CCCN1c2ccccc2-c2onc(-c3ccccc3)c2-c2ccccc21"
assaysystem = "souris femelles"
observed = 0

[[record]]
molecule = "CN(C)CCN1c2ccccc2C=Cc2ccccc21 [compound 20, reference compound]"
assaysystem = "souris femelles"
observed = 3


----------
- protocolDescription: acute toxicity in the mouse, intraperitoneal
- Type: in vivo, Souris
- settings: mouse, in vivo, ip; voie intrapéritonéale, 150 mg/kg; read-out: Mortalité %
measuredQuantity: mortality at 48 h (%)

[[record]]
molecule = "CN(C)CCCN1c2ccccc2-c2onc(-c3ccccc3)c2-c2ccccc21"
measuredquantity = "mortality at 48 h"
observed = 0

[[record]]
molecule = "CN(C)CCN1c2ccccc2-c2onc(-c3ccccc3)c2-c2ccccc21"
measuredquantity = "mortality at 48 h"
observed = 0

[[record]]
molecule = "CC(CN(C)C)CN1c2ccccc2C2C(c3ccccc3)=NN(c3ccccc3)C2c2ccccc21 (centres unmarked)"
measuredquantity = "mortality at 48 h"
observed = 0

[[record]]
molecule = "CN(C)CCCN1c2ccccc2C2C(c3ccccc3)=NN(c3ccccc3)C2c2ccccc21 (centres unmarked)"
measuredquantity = "mortality at 48 h"
observed = 20

[[record]]
molecule = "CN(C)CCCN1c2ccccc2C2ON=C(c3ccccc3)C2c2ccccc21 (centres unmarked)"
measuredquantity = "mortality at 48 h"
observed = 0

